# target_desc: Luciferin 4-monooxygenase (Photinus pyralis)
# test: qHTS assay to identify small molecule inhibitors of firefly luciferase (AID 1224835); further: nearly all actives have a fitted effect of over 25% in size
# details: purified P. pyralis luciferase, luminescence inhibition; series mostly up to 115 µM
Results filed as inconclusive are left out. Calls of active or inactive are those of the source. The call rests on the fitted dose curve; in most records, active means well fitted inhibition curve with a large enough effect in the repeat runs; inconclusive means weak or mixed curves; inactive means flat fitted curve, though single readings scatter.
Classes used: active, inactive

compound | qualitative_label
O=[N+]([O-])c1cccc2cccc([N+](=O)[O-])c12 | inactive
O=C(N[C@@H]1N=C(c2ccccc2F)c2cccc3c2N(CC3)C1=O)c1cc2ccccc2[nH]1 | active
N#CC(C#N)=NNc1cccc(Cl)c1 | active
COP(=O)(OC)O/C(=C\Cl)c1cc(Cl)c(Cl)cc1Cl | inactive
CCOP(=S)(OCC)SC(CCl)N1C(=O)c2ccccc2C1=O (configuration not stated) | inactive
CN(C)c1ccc(N)cc1 | active
CCCCc1ccccc1 | inactive

----------
# test: qHTS assay to identify small molecule antagonists of the thyroid receptor (TR) signaling pathway - cell viability counter screen (AID 743064); further: nearly all actives have a fitted effect of over 50% in size
# details: GH3.TRE-Luc viability, CellTiter-Fluor, 24 h; series mostly up to 70.3 µM
Inconclusive results are not listed. The source made the active and inactive calls. Calls follow the shape of the dose curve; as a rule, active = well fitted cell-killing curve with a large enough effect in the repeat runs; inconclusive = weak or mixed curves, or effect the other way; inactive = no such curve, though single readings can be large or run the other way.
Classes used: YES for active, NO for inactive

molecule | qualitative_label
O=c1[nH]c(Cl)c(Cl)cc1Cl | NO
C1=CCC=C1 | NO
CN/C(=N\[N+](=O)[O-])NCc1cnc(Cl)s1 | NO
Nc1ccc(N=Nc2ccccc2)cc1 | YES
COc1cnc(OC)n2nc(NS(=O)(=O)c3c(OCC(F)F)cccc3C(F)(F)F)nc12 | NO
O=[N+]([O-])c1cccc2cccc([N+](=O)[O-])c12 | NO
O=[N+]([O-])c1ccccc1-c1ccccc1 | NO
O=Cc1ccccc1 | NO
O=C(NC(=O)c1ccccc1Cl)Nc1ccc(OC(F)(F)F)cc1 | NO
CC1(C)C(C=C(Cl)Cl)C1C(=O)OC(C#N)c1ccc(F)c(Oc2ccccc2)c1 (stereo not drawn) | NO
CCOC(=O)CCN(SN(C)C(=O)Oc1cccc2c1OC(C)(C)C2)C(C)C | NO
CNN | NO
CCCCn1cc[n+](C)c1.[Cl][Fe-]([Cl])([Cl])[Cl] | NO

----------
# target_desc: Estrogen receptor (Homo sapiens) (UniProt P03372)
# Sequence (P03372 whole entry, looked up): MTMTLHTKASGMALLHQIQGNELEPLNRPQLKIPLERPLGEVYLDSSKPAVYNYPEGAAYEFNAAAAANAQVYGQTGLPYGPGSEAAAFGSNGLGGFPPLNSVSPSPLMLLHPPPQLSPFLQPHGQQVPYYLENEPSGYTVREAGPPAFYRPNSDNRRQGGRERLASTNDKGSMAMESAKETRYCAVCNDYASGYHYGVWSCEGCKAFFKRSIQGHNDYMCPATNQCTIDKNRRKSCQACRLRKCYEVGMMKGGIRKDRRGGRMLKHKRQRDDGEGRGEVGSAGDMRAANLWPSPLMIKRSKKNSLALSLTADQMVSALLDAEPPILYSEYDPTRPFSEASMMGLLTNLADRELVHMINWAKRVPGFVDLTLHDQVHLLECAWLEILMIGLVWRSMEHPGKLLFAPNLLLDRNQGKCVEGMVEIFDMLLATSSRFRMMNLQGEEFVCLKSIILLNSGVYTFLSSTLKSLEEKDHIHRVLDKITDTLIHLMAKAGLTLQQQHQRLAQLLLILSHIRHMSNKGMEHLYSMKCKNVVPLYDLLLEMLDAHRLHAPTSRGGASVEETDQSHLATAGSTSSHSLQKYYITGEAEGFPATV
# test: qHTS assay to identify small molecule antagonists of the estrogen receptor alpha (ER-alpha) signaling pathway (AID 743069)
# details: HEK293 ER-alpha-UAS-bla, beta-lactamase ratio, antagonist mode; series mostly up to 69.4 µM
Active and inactive are the calls of the source. Calls come from the whole dose curve; as a rule, active = well fitted curve in the direction sought with a large enough effect in the signal ratio in the repeat runs (not every such curve was filed as active); inconclusive = weak or mixed curves, or effect the other way; inactive = no such curve, though single readings can be large or run the other way; the % refers to the signal ratio.
Classes used: Yes for active, No for inactive

compound | qualitative_label
CO/N=C(/C1=NOCCO1)c1ccccc1Oc1ncnc(Oc2ccccc2Cl)c1F | Yes
CCOP(=S)(NC(C)C)Oc1ccccc1C(=O)OC(C)C (centres undefined) | No
CC1(C)C(C=C(Cl)Cl)C1C(=O)OC(C#N)c1ccc(F)c(Oc2ccccc2)c1 (centres undefined) | No
CC(Cc1ccc(O)cc1)NCC(O)c1cc(O)cc(O)c1 (centres undefined) | No
CCOC(=O)Cc1ccccc1 | No
CCCCc1ccccc1 | No
COc1cnc(OC)n2nc(NS(=O)(=O)c3c(OCC(F)F)cccc3C(F)(F)F)nc12 | No
O=C(O)[C@H](O)[C@@H](O)C(=O)O | No
CCCCCCCc1ccc(O)cc1 | No
CCN(CC)CCN1C(=O)CN=C(c2ccccc2F)c2cc(Cl)ccc21 | No
CCCCN(CCCC)C(=S)[S-].CCCCN(CCCC)C(=S)[S-].[Ni+2] | No
CC(C)=CCN1CC[C@@]2(C)c3cc(O)ccc3C[C@@H]1[C@@H]2C | No
N#CC(C#N)=NNc1cccc(Cl)c1 | Yes
Nc1nc(N)nc(Cl)n1 | No
CNC(=O)CSP(=O)(OC)OC | No
CN/C(=N\[N+](=O)[O-])NCc1cnc(Cl)s1 | No
N#CSCc1ccccc1 | No
c1cc[n+]2c(c1)-c1cccc[n+]1CC2 | No
CNC(=O)/C=C(\C)OP(=O)(OC)OC | No
CCNc1nc(NC(C)C(C)C)nc(SC)n1 (centres undefined) | No
C=CCBr | No
COc1nc(C)nc(NC(=O)NS(=O)(=O)c2ccccc2Cl)n1 | No
ClSC(Cl)(Cl)Cl | No
CCCCC(CC)COC(=O)c1ccccc1C(=O)OCC(CC)CCCC (centres undefined) | No
BrCC(Br)(Br)Br | No
ClCBr | No
CCCCN(CCCC)C(=S)S | No
CN1[C@@H]2CC[C@H]1CC(O)C2 (some centres undefined) | No
C=Cc1cccc(CCl)c1 | No
N#CCCl | No
O.O.O.O=C([O-])[C@H]([O-])[C@@H]([O-])C(=O)[O-].O=C([O-])[C@H]([O-])[C@@H]([O-])C(=O)[O-].[K+].[K+].[Sb+3].[Sb+3] | Yes
Oc1cccc(Cl)c1Cl | No
O=C1C(Cl)=C(Cl)C(=O)C(Cl)=C1Cl | Yes
CC(C)C(Br)C(=O)NC(N)=O (centres undefined) | No
CC(C)[C@@H](Nc1ccc(C(F)(F)F)cc1Cl)C(=O)OC(C#N)c1cccc(Oc2ccccc2)c1 (some centres undefined) | No
CC(Cc1ccc2c(c1)OCO2)NO (centres undefined) | No
[O]=[Cr](=[O])([OH])[O][Cr](=[O])(=[O])[OH] | No
O=C(O)CCCCCCNC1c2ccccc2CCc2ccccc21 | No
CC[C@H](C)[C@H]1O[C@]2(C=C[C@@H]1C)C[C@@H]1C[C@@H](C/C=C(\C)[C@@H](O[C@H]3C[C@H](OC)[C@@H](O[C@H]4C[C@H](OC)[C@@H](NC)[C@H](C)O4)[C@H](C)O3)[C@@H](C)/C=C/C=C3\CO[C@@H]4[C@H](O)C(C)=C[C@@H](C(=O)O1)[C@]34O)O2 | Yes

----------
# test: qHTS RealTime-Glo MT Cell Viability Assay in HepG2 cells - 0 hour (AID 1224889); further: nearly all actives have a fitted effect of over 50% in size
# details: RealTime-Glo luminescence; series mostly up to 76.8 µM
Results filed as inconclusive are left out. Calls of active or inactive are those of the source. Calls come from the whole dose curve; as a rule, active = well fitted cell-killing curve with a large enough effect in the repeat runs; inconclusive = weak or mixed curves, or effect the other way; inactive = flat fitted curve, though single readings scatter.
Classes used: active, inactive

molecule | qualitative_label
Nc1nc(N)c(N)c(N)n1 | inactive
COC(=O)c1ccccc1S(=O)(=O)NC(=O)Nc1nc(C)nc(OC)n1 | inactive
C[N+]1(C)[C@@H]2CC[C@H]1CC(OC(=O)C(CO)c1ccccc1)C2 (stereo partly specified) | inactive
N#Cc1sc2c(=O)c3ccccc3c(=O)c=2sc1C#N | active
CCCCCCC[CH2][Sn]([Cl])([Cl])[CH2]CCCCCCC | inactive
O=P(Cl)(Cl)Cl | inactive
COc1ccc2c(c1OC)C(=O)O[C@@H]2[C@H]1c2cc3c(cc2CCN1C)OCO3 | inactive
CCC[CH2][Sn]([CH2]CCC)([CH2]CCC)[CH2]CCC | inactive
CC(O)C(=O)[O][Hg][c]1ccccc1 (stereo unspecified) | inactive
COc1nc(C)nc(NC(=O)NS(=O)(=O)c2ccccc2Cl)n1 | inactive
FC(F)C(F)(F)OCC(Cn1cncn1)c1ccc(Cl)cc1Cl (stereo unspecified) | inactive
O=S1OCC2C(CO1)C1(Cl)C(Cl)=C(Cl)C2(Cl)C1(Cl)Cl (stereo unspecified) | inactive
O=S1(=O)OCC2C(CO1)C1(Cl)C(Cl)=C(Cl)C2(Cl)C1(Cl)Cl (stereo unspecified) | inactive
CC(=O)[O-].CC(=O)[O-].O.O.[Zn+2] | inactive
Cc1ccn2nc(S(=O)(=O)Nc3c(F)cccc3F)nc2n1 | inactive
CCCCc1ccccc1 | inactive
CCC(C)c1cccc(C(C)CC)c1O (stereo unspecified) | inactive
Cc1ccc(C)c2ccccc12 | inactive
CCCCN(CCCC)C(=S)[S-].CCCCN(CCCC)C(=S)[S-].[Ni+2] | inactive
CCN(CC)CCc1c[nH]c2ccccc12 | inactive
COC(=O)C(C)N(C(=O)c1ccco1)c1c(C)cccc1C (stereo unspecified) | inactive
CCCCCCCCCCCCCCn1cc[n+](C)c1 | inactive
CC1(C)[C@H](/C=C2\CCSC2=O)[C@@H]1C(=O)OCc1coc(Cc2ccccc2)c1 | inactive
CN | inactive
c1ccc2nc(N3CCNCC3)ccc2c1 | inactive
CC(Cc1ccccc1)N(C)Cc1ccco1 (stereo unspecified) | inactive

----------
# test: qHTS assay to identify small molecule agonists of the farnesoid-X-receptor (FXR) signaling pathway - cell viability counter screen (AID 743218); further: nearly all actives have a fitted effect of over 45% in size
# details: FXR-bla HEK293T viability, CellTiter-Glo luminescence, 16 h; series mostly up to 62.6 µM
# From the text: U.S. Tox21 Program National Center for Advancing Translational Sciences [NCATS] NIH Chemical Genomics Center [NCGC] U.S. Environmental Protection Agency [EPA] National Institutes of Environmental Health Sciences [NIEHS] National Toxicology Program [NTP] U.S. Food and Drug Administration [FDA] Tox21 Assay Overview: The farnesoid-X-receptor (FXR), a nuclear hormone receptor, is highly expressed in liver, intestine, kidney and adrenal cortex. […]
Records with an inconclusive call do not appear. Activity calls are given as the source filed them. Calls follow the shape of the dose curve; as a rule, active = well fitted cell-killing curve with a large enough effect in the repeat runs; inconclusive = weak or mixed curves, or effect the other way; inactive = no such curve, though single readings can be large or run the other way.
Classes used: active, inactive

compound | qualitative_label
CCOC(=O)Cc1ccccc1 | inactive
O.O.O.O.O.O.O=S(=O)([O-])[O-].[Ni+2] | inactive
N#CCCl | inactive
COc1ccc2c3c1O[C@H]1[C@H](O)CC[C@H]4[C@@H](C2)N(C)CC[C@@]341 | inactive
CCNc1nc(NC(C)C(C)C)nc(SC)n1 (stereo unspecified) | inactive
C[N+]1(C)[C@@H]2CC[C@H]1CC(OC(=O)C(CO)c1ccccc1)C2 (stereo partly specified) | inactive
CC(O)C(=O)[O][Hg][c]1ccccc1 (stereo unspecified) | active
CN/C(=N\[N+](=O)[O-])NCc1cnc(Cl)s1 | inactive
Oc1cc(Cl)c(Cl)c(Cl)c1Cl | active
NC(=O)C(Cl)Cl | inactive
C=CC(=C)C | inactive
CCN(CC)CCN1C(=O)CN=C(c2ccccc2F)c2cc(Cl)ccc21 | inactive
CCCCON=O | inactive
CC(=O)O.CC(=O)O.CC(=O)O.CC(=O)O.CC(=O)O.CC(=O)O.CC(=O)O.O.O.[Cr].[Cr].[Cr] | inactive
Cc1c([N+](=O)[O-])cc2c(c1[N+](=O)[O-])C(C)(C)CC2(C)C | inactive
CCN1CCC2(CC1)COc1cc3c(cc12)N(C(=O)c1ccc(-c2ccc(-c4nnc(C)o4)cc2C)cc1)CC3 | active
BrCCCBr | inactive
C[C@]12CC[C@H]3[C@@H](CCC4=CC(=O)CC[C@@H]43)[C@@H]1CC[C@@H]2OC(=O)CCc1ccco1 | active
O=[N+]([O-])c1ccccc1-c1ccccc1 | inactive
COc1c2c(cc3c1OCO3)CCN(C)C2 | inactive
[C-]1=CC=CC1.[Cl][Zr+2][Cl].c1cc[cH-]c1 | inactive
ClCBr | inactive
[Cl-].[Cl-].[Cl-].[Yb+3] | inactive
CCc1cccc(C)c1N(C(=O)CCl)[C@@H](C)COC | inactive
CCNS(=O)(=O)C(F)(F)C(F)(F)C(F)(F)C(F)(F)C(F)(F)C(F)(F)C(F)(F)C(F)(F)F | inactive
c1ccc2c(c1)cc1ccc3cccc4ccc2c1c34 | inactive

Each recorded value in this set is attributed to PubChem BioAssay (Tox21).
